test: acute toxicity in the rat (LD50, SPEARMAN-KARBER method); settings: in vivo, iv

{"compound": "CCC12CCCN3CCC4(C(=Nc5ccccc54)C(O)(C(=O)OC)C1)C32 (single isomer, unassigned)", "LD50 at 72 h (mg/kg)": 63.4}

* * *

assay: acute toxicity in the mouse (LD50, SPEARMAN-KARBER method); conditions: in vivo, iv

{"molecule": "CCC12CCCN3CCC4(C(=Nc5ccccc54)C(O)(C(=O)OC)C1)C32 (single isomer, unassigned)", "LD50 at 72 h / mg/kg": 86}

* * *

assay: acute toxicity in the mouse (LD50, SPEARMAN-KARBER method); conditions: in vivo, sc

{"compound": "CCC12CCCN3CCC4(C(=Nc5ccccc54)C(O)(C(=O)OC)C1)C32 (single isomer, unassigned) [the compound]", "result-unit": "mg/kg", "LD50 at 72 h": 176}

* * *

experiment: acute toxicity in the rat (LD50, SPEARMAN-KARBER method); settings: in vivo, sc
parameter: LD50 at 72 h (mg/kg)

{"compound": "CCC12CCCN3CCC4(C(=Nc5ccccc54)C(O)(C(=O)OC)C1)C32 (single isomer, unassigned)", "parameter": "LD50 at 72 h", "result-unit": "mg/kg", "recorded-number": 126}

* * *

assay: acute toxicity in the rat (LD50, SPEARMAN-KARBER method); details: in vivo, po

{"compound": "CCC12CCCN3CCC4(C(=Nc5ccccc54)C(O)(C(=O)OC)C1)C32 (single isomer, unassigned) [the compound]", "result-unit": "mg/kg", "LD50 at 72 h": 777}

* * *

test: acute toxicity in the mouse (LD50, SPEARMAN-KARBER method); conditions: in vivo, po

{"compound": "CCC12CCCN3CCC4(C(=Nc5ccccc54)C(O)(C(=O)OC)C1)C32 (single isomer, unassigned)", "result-unit": "mg/kg", "LD50 at 72 h": 860}
